Data provenance is patent US7125990B2.

Reported pKi values are given for each entry in this list.
- Target Entity: CRF1 receptors (Homo sapiens)
- Construct: endogenous in cells; host or cells: IMR-32 cells, transformed with 2.5 µM 5'-bromo-2'-deoxyuridine for 10 days; membrane preparation
- Sequence (P34998 24-415): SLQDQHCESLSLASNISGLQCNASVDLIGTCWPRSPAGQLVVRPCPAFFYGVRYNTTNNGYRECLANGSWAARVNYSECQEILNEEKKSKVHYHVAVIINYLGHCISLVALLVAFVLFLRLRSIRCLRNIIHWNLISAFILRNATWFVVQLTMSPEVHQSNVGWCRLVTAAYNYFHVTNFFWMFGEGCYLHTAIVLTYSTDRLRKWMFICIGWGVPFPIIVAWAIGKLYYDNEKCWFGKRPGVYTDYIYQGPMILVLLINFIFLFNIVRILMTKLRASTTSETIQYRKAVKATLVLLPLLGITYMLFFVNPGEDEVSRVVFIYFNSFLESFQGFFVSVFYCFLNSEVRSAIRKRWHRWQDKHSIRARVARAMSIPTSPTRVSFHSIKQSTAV
- Assay Details: CRF1 receptor radioligand binding assay ([125I]-oCRF competition, IMR-32 cell membranes)
- Experimental Context: IMR-32 cell membranes, [125I]-oCRF 100 pM; read-out: Ki (CRF-1R)
pKi: −log10 of the molar value.

IN: Request - read-out pKi | tested on CRF1 receptors (Homo sapiens) | molecule `Cc1cc(C)c(N2CCCn3c2nc(C(F)(F)F)c3CN2CCCCC2)c(C)c1`
OUT: > 6.00

IN: Request - read-out pKi | tested on CRF1 receptors (Homo sapiens) | molecule `Cc1cc(C)c(-n2c3ccccc3n3c(CN(CC4CCC4)CC(F)(F)F)c(C(F)(F)F)nc23)c(C)c1`
OUT: > 7.00

IN: Request - read-out pKi | tested on CRF1 receptors (Homo sapiens) | molecule `Cc1cc(C)c(N2CCCn3c2nc(C(F)(F)F)c3CN(CCc2ccccc2)CC(F)(F)F)c(Cl)c1`
OUT: > 6.00

IN: Request - read-out pKi | tested on CRF1 receptors (Homo sapiens) | molecule `Cc1cc(C)c(-n2c(Cl)cn3c(CN(CCC4CC4)CC(F)(F)F)c(C(F)(F)F)nc23)c(C)c1`
OUT: > 8.00

IN: Request - read-out pKi | tested on CRF1 receptors (Homo sapiens) | molecule `CCCN(Cc1c(C)nc2n(-c3c(C)cc(C)cc3C)c3ccc(F)cc3n12)CC1CC1`
OUT: > 7.00
